Origin of measurements: PubChem BioAssay (NCI)

- Test system: A498 renal
- procedure-details: NCI tumour cell line growth inhibition, 48 h
measurement-kind: TGI

| compound | system-name | experimental-result |
| --- | --- | --- |
| CCCCCCC(=O)OC[n+]1ccc(-c2c(COC(=O)NC(C)C)c(COC(=O)NC(C)C)c3n2CCC3)cc1 | A498 renal | > 94.2 µM |
| CO[P@@]1(=O)O[C@@H](c2ccccc2)[C@H](O)[C@@]1(O)c1ccccc1 | A498 renal | > 100 µM |
| CC1=C2CC[C@@]3(C)C(=CCC3O)C2(C)CCC1=O (stereo not given in full) | A498 renal | > 100 µM |
| CNC(=O)O/N=C1\N(C)CN(c2ccccc2)C12CCN(CCCC(=O)c1ccc(F)cc1)CC2 | A498 renal | > 100 µM |
| O=C1CCc2cc(Br)ccc2O1 | A498 renal | > 100 µM |
